Sourced from paper PMC5407577

Biological target: LmexNT1
Type: cell-based, Leishmania mexicana
pKi: −log10 of the molar value.
RECORDED_METRIC: pKi

compound="O=c1[nH]cnc2nc[nH]c12 [hypoxanthine]" observed_result="< 3.00"

----------
Molecular target: LmexNT1
Test: [3H]-adenosine uptake by L. mexicana promastigotes
Type: cell-based, Leishmania mexicana
Settings: inhibition of 0.05 μM [3H]-adenosine uptake; read-out: Ki
pKi: −log10 of the molar value.
RECORDED_METRIC: pKi

structure_smiles_string=Nc1ncnc2[nH]cnc12 target_under_test=LmexNT1 readout_relation=< observed_result=3.00
structure_smiles_string=O=c1ccn([C@@H]2O[C@H](CO)[C@@H](O)[C@H]2O)c(=O)[nH]1 target_under_test=LmexNT1 readout_relation== observed_result=4.77
structure_smiles_string=Cc1cn([C@H]2C[C@H](O)[C@@H](CO)O2)c(=O)[nH]c1=O target_under_test=LmexNT1 readout_relation== observed_result=4.78
structure_smiles_string=O=c1[nH]cnc2c1ncn2[C@@H]1O[C@H](CO)[C@@H](O)[C@H]1O target_under_test=LmexNT1 readout_relation== observed_result=2.79
structure_smiles_string=O=c1cc[nH]c(=O)[nH]1 target_under_test=LmexNT1 readout_relation=< observed_result=2.60
structure_smiles_string=Nc1ccn([C@@H]2O[C@H](CO)[C@@H](O)[C@H]2O)c(=O)n1 target_under_test=LmexNT1 readout_relation== observed_result=3.83

----------
Biological target: LmajNT1
Assay: [3H]-thymidine uptake by L. major promastigotes
Type: cell-based, Leishmania major
Settings: inhibition of 0.25 μM [3H]-thymidine uptake (total LmajNT1.1 + LmajNT1.2), 5 min
Description: Using the standard uptake technique as described for T. brucei and Leishmania species ([Wallace et al., 2002], [Al-Salabi and De Koning, 2005], [Gudin et al., 2006]), the dose- or time-dependent uptake of radiolabeled permeants was investigated. Briefly, cells in the mid-to-late logarithmic stage of growth were harvested by centrifugation for 10 min at 1500×g. […] Radioactivity was determined by liquid scintillation counting in a Beckman LS6000 TA scintillation counter. […]
The threshold is 1000 µM. Values of Ki beneath it are tagged true (1); values meeting or exceeding it are tagged false (0).

structure_smiles_string=Cc1cn([C@H]2CC[C@@H](CO)O2)c(=O)[nH]c1=O class_label="false (0)"
structure_smiles_string=O=C1C=CN([C@@H]2O[C@H](CO)[C@@H](O)[C@H]2O)C(=O)C1 class_label="false (0)"
structure_smiles_string=Nc1ncnc2[nH]cnc12 class_label="false (0)"
structure_smiles_string=O=c1[nH]c(=S)ccn1[C@@H]1O[C@H](CO)[C@@H](O)[C@H]1O class_label="true (1)"
structure_smiles_string=Nc1ncnc2c1ncn2[C@@H]1O[C@H](CO)[C@@H](O)[C@H]1O class_label="true (1)"
structure_smiles_string=Nc1ccn([C@@H]2O[C@H](CO)[C@@H](O)[C@H]2O)c(=O)n1 class_label="false (0)"
structure_smiles_string=Cc1c[nH]c(=O)[nH]c1=O class_label="false (0)"
structure_smiles_string=O=c1cc[nH]c(=O)[nH]1 class_label="false (0)"

----------
Molecular target: LmexNT1
Assay type: cell-based, Leishmania mexicana
Conditions: inhibition of 0.25 μM [3H]-uridine uptake in the presence of 1 mM uracil
pKi: −log10 of the molar value.
RECORDED_METRIC: pKi

structure_smiles_string=Nc1ncnc2[nH]cnc12 observed_result="< 3.00"
structure_smiles_string=O=c1cc[nH]c(=O)[nH]1 observed_result="< 2.60"
structure_smiles_string=O=c1[nH]cc(F)c(=O)[nH]1 observed_result="< 2.30"

----------
Molecular target: LmajNT1
Test: [3H]-uridine uptake by L. major promastigotes, low-affinity component
Assay type: cell-based, Leishmania major
Settings: inhibition of 0.25 μM [3H]-uridine uptake
Readings of Ki for the listed molecules
RECORDED_METRIC: Ki

structure_smiles_string=O=c1cc[nH]c(=O)[nH]1 recorded_metric=Ki observed_result="> 1000 µM"
structure_smiles_string=O=c1[nH]cnc2c1ncn2[C@@H]1O[C@H](CO)[C@@H](O)[C@H]1O recorded_metric=Ki observed_result="> 1000 µM"
structure_smiles_string=Nc1ncnc2[nH]cnc12 recorded_metric=Ki observed_result="> 1000 µM"
